assay_summary: Volume of distribution at steady state in dog at 0.2 mg/kg, iv infusion
Assay type: ADME, organism-based, Canis lupus familiaris
Parameters: dose 0.2 mg/kg, route intravenous
condition: in vivo, read-out: Vdss
observation_type: Vd (L/kg)
Provide only the numeric value, understood in L/kg.

Exercise: Tell me the measured Vd of CC(C)N1CCC(Oc2ccc(C3(C(N)=O)CCOCC3)cc2)CC1 , please.
Key: 2.3

----------
test_system: Histamine H3 receptor (Homo sapiens, UniProt Q9Y5N1)
Sequence (Q9Y5N1 whole entry): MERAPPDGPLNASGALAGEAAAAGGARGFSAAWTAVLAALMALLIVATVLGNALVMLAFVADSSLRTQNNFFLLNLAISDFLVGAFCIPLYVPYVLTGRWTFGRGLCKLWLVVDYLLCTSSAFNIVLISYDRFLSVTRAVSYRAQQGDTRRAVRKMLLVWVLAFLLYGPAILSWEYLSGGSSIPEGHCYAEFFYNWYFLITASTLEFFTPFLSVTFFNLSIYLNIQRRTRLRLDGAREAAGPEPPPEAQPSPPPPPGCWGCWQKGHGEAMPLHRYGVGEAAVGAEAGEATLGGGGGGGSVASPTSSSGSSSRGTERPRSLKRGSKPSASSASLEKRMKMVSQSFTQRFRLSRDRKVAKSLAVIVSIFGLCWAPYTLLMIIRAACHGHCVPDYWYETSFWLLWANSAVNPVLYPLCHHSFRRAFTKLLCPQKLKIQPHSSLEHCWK
assay_summary: Displacement of [3H]-N-alpha-methylhistamine from human recombinant histamine H3 receptor expressed in HEK293 cell membrane
Format: cell membranes
observation_type: pKi
Note: pKi values are expressed as the negative base-10 logarithm of concentration in M.

Exercise: Item CC(C)N1CCC(Oc2ccc(C3(C(N)=O)CCOCC3)cc2)CC1 has what recorded pKi?
Key: 8.02

----------
test_system: Histamine H3 receptor (Rattus norvegicus, UniProt Q9QYN8)
Sequence (Q9QYN8 whole entry): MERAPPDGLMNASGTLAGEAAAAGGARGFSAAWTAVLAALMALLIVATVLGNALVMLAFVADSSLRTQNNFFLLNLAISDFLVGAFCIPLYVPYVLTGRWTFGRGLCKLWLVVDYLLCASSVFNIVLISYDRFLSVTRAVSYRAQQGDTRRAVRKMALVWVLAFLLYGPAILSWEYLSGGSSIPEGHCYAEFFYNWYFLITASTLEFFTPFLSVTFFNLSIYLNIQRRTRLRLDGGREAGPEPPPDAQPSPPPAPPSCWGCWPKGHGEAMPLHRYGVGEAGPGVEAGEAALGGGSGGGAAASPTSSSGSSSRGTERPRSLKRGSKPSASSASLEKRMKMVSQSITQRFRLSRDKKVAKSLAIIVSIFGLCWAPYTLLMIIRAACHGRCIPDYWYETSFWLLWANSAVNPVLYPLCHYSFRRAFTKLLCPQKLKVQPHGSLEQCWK
assay_summary: Displacement of [3H]-N-alpha-methylhistamine from rat recombinant histamine H3 receptor expressed in HEK293 cell membrane
Format: cell membranes
observation_type: Ki (nM)
Give the quantity in nM, number only.

Exercise: Ki lookup needed for CC(C)N1CCC(Oc2ccc(C3(C(N)=O)CCOCC3)cc2)CC1 , thanks.
Key: 90.6

----------
assay_summary: Binding affinity to sigma receptor (unknown origin)
Parameters: species or system Homo sapiens
observation_type: Ki
Answer format: number, then unit.

Exercise: Form field: reported Ki of CC(C)N1CCC(Oc2ccc(C3(C(N)=O)CCOCC3)cc2)CC1
Key: 3.9 µM

----------
assay_summary: Oral bioavailability in rat at 2 mg/kg
Type: ADME, organism-based
condition: in vivo
observation_type: bioavailability (%)
Quick reminder: number only, in %, skip the unit.

Exercise: Using the record for CC(C)N1CCC(Oc2ccc(C3(C(N)=O)CCOCC3)cc2)CC1 , report its bioavailability.
Key: 42

----------
System: Rattus norvegicus
assay_summary: Free Cmax in rat at 1 mg/kg, iv administered as bolus dose
Assay type: ADME, organism-based
Parameters: dose 1 mg/kg, route intravenous
condition: in vivo
observation_type: fCmax (nM)
Supply the numeric figure in nM, leaving out any unit text.

Exercise: Which value of fCmax has been reported for CC(C)N1CCC(Oc2ccc(C3(C(N)=O)CCOCC3)cc2)CC1 in the records?
Key: 856

----------
assay_summary: Distribution coefficient, log D of the compound at pH 7.4
Format: physicochemical
condition: octanol/water
observation_type: logD

> print(dat)
                               given.smiles  observation.type  endpoint.result
1  CC(C)N1CCC(Oc2ccc3c(n2)CCN(c2ccc(C(N)=O)cn2)C3)CC1              logD              1.2

Exercise: Given the entry CC(C)N1CCC(Oc2ccc(C3(C(N)=O)CCOCC3)cc2)CC1 , report its measured logD.
Key: 0

----------
Tested on: Canis familiaris
assay_summary: Free Cmax in dog at 0.2 mg/kg, po
Format: ADME, organism-based, Canis lupus familiaris
Design: dose 0.2 mg/kg, route oral
condition: in vivo
observation_type: fCmax (nM)
Numeric answer only, unit nM assumed.

Exercise: For the record CC(C)N1CCC(Oc2ccc(C3(C(N)=O)CCOCC3)cc2)CC1 , what value of fCmax is listed for Canis familiaris?
Key: 352

----------
Tested on: Canis familiaris
assay_summary: Free Cmax in dog at 0.2 mg/kg, iv infusion
Format: ADME, organism-based, Canis lupus familiaris
Design: dose 0.2 mg/kg, route intravenous
condition: in vivo
observation_type: fCmax (nM)
Numbers only here, please. The scale is nM.

Exercise: Please state recorded fCmax (tested on Canis familiaris) of CC(C)N1CCC(Oc2ccc(C3(C(N)=O)CCOCC3)cc2)CC1
Key: 320

----------
test_system: Histamine H3 receptor (Homo sapiens)
assay_summary: Inhibition of human recombinant histamine H3 receptor expressed in HEK293 cells assessed as inhibition of imetit-induced reduction in NKH477-stimulated cAMP accumulation by DiscoveRxTM assay
Type: functional, cell-based
observation_type: pKi
// pKi here means minus log10 of the molar concentration (mol/L)

Exercise: // lookup pKi for CC(C)N1CCC(Oc2ccc(C3(C(N)=O)CCOCC3)cc2)CC1
Key: 9.08

----------
Recorded solubility values for a group of compounds are listed next.
assay_summary: Solubility of the compound
Assay type: physicochemical

> print(dat)
                               given.smiles  observation.type  endpoint.result
1  CC(C)N1CCC(Oc2ccc(C3(C(N)=O)CCOCC3)cc2)CC1        solubility     > 1000 µg/mL

Attention now shifts to the item below.
Exercise: Data request, read-out solubility, for CC(C)N1CCC(Oc2ccc3c(n2)CCN(c2ccc(C(N)=O)cn2)C3)CC1
Key: > 1000 µg/mL

----------
assay_summary: Dissociation constant, pKa of the compound
Assay type: physicochemical
observation_type: pKa
Give your answer as a number; write no unit.

Exercise: Can you look up the measured pKa of CC(C)N1CCC(Oc2ccc(C3(C(N)=O)CCOCC3)cc2)CC1 for me?
Key: 9.78

----------
assay_summary: Tmax in rat at 2 mg/kg, po
Assay type: ADME, organism-based
Set-up: dose 2 mg/kg, route oral
condition: in vivo
observation_type: Tmax (min)
Form entry: value (min) — number only.

Exercise: Bench note: what Tmax did CC(C)N1CCC(Oc2ccc(C3(C(N)=O)CCOCC3)cc2)CC1 show?
Key: 45

----------
assay_summary: AUC in rat at 1 mg/kg, iv administered as bolus dose
Type: ADME, organism-based
Design: dose 1 mg/kg, route intravenous
condition: plasma
observation_type: AUC (ng·h/mL)
Enter your answer as a number in ng·h/mL; do not include the unit.

Exercise: Value lookup for AUC; key = CC(C)N1CCC(Oc2ccc(C3(C(N)=O)CCOCC3)cc2)CC1
Key: 776

----------
test_system: Voltage-gated inwardly rectifying potassium channel KCNH2 (Homo sapiens)
Sequence (Q12809 whole entry): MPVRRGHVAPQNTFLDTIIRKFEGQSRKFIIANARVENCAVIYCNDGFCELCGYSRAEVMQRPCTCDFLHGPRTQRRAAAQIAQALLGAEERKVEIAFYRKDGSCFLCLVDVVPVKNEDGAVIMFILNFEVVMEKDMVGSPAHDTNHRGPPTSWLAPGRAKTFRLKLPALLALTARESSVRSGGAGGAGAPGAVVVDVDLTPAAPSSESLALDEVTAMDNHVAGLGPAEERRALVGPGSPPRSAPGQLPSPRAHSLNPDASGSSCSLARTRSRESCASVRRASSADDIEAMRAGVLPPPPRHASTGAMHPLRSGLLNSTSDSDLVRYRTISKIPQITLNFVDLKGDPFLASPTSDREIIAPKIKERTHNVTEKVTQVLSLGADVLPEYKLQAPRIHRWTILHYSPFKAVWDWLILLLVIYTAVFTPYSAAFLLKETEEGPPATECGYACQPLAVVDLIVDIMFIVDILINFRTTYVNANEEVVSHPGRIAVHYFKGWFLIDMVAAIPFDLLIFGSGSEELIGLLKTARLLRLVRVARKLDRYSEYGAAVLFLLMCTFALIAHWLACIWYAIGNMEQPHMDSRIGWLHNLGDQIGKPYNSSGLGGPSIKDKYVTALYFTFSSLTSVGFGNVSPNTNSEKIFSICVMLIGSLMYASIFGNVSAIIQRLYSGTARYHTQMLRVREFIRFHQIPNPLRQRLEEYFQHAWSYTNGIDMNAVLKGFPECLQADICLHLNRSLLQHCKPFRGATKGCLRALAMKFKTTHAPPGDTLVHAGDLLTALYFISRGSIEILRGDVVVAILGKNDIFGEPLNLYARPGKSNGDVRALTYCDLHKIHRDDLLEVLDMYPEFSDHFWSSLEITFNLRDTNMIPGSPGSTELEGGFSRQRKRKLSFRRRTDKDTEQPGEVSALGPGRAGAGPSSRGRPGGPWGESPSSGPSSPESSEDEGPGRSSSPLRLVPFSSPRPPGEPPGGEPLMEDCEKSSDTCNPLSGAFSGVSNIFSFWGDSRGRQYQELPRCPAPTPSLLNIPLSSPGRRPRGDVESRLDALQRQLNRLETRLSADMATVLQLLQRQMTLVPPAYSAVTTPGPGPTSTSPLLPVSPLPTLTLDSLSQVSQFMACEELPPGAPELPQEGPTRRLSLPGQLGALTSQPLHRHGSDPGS
observation_type: Ki

Exercise: Give Voltage-gated inwardly rectifying potassium channel KCNH2 (Homo sapiens) Ki for CC(C)N1CCC(Oc2ccc(C3(C(N)=O)CCOCC3)cc2)CC1
Key: > 40 µM

----------
assay_summary: Ratio of free drug level in brain to plasma in dog at 1.5 mg/kg/day, po for 8 days
Format: ADME, organism-based, Canis lupus familiaris
Set-up: route oral
condition: read-out: K(p,uu,brain)
observation_type: Kp uu at 192 h
Give the figure only, with no unit attached.

Exercise: Record request: Kp uu at 192 h value, item CC(C)N1CCC(Oc2ccc(C3(C(N)=O)CCOCC3)cc2)CC1
Key: 0.1

----------
assay_summary: AUC in dog at 0.2 mg/kg, iv infusion
Format: ADME, organism-based, Canis lupus familiaris
Design: dose 0.2 mg/kg, route intravenous
condition: plasma
observation_type: AUC (ng·h/mL)
Could you give me the number in ng·h/mL? Just the number is fine.

Exercise: For the molecule shown here, CC(C)N1CCC(Oc2ccc(C3(C(N)=O)CCOCC3)cc2)CC1 , give the reported AUC.
Key: 548

----------
assay_summary: AUC in dog at 0.2 mg/kg, po
Type: ADME, organism-based, Canis lupus familiaris
Design: dose 0.2 mg/kg, route oral
condition: plasma
observation_type: AUC (ng·h/mL)
The reply should be a number in ng·h/mL, with the unit left off.

Exercise: Which AUC is listed for CC(C)N1CCC(Oc2ccc(C3(C(N)=O)CCOCC3)cc2)CC1 ?
Key: 727

----------
assay_summary: Effective half life in rat at 1 mg/kg, iv administered as bolus dose
Format: ADME, organism-based
Design: dose 1 mg/kg, route intravenous
condition: in vivo, read-out: t1/2eff (converted)
observation_type: half-life (h)
Record the value in h, omitting the unit from your answer.

Exercise: Quick one: half-life of CC(C)N1CCC(Oc2ccc(C3(C(N)=O)CCOCC3)cc2)CC1 ?
Key: 1.9

----------
Tested on: Rattus norvegicus
assay_summary: Free Cmax in rat at 2 mg/kg, po
Assay type: ADME, organism-based
Set-up: dose 2 mg/kg, route oral
condition: in vivo
observation_type: fCmax (nM)
Give your result in nM as a bare value.

Exercise: Entry CC(C)N1CCC(Oc2ccc(C3(C(N)=O)CCOCC3)cc2)CC1 has what fCmax?
Key: 158

----------
assay_summary: Total Cmax in dog at 0.2 mg/kg, iv infusion
Format: ADME, organism-based, Canis lupus familiaris
Parameters: dose 0.2 mg/kg, route intravenous
condition: in vivo
observation_type: Cmax (ng/mL)
Numeric answer only, unit ng/mL assumed.

Exercise: I am curious: what Cmax value has been reported for CC(C)N1CCC(Oc2ccc(C3(C(N)=O)CCOCC3)cc2)CC1 ?
Key: 129

----------
assay_summary: Oral bioavailability in rat
Type: ADME, organism-based
condition: in vivo
Reported bioavailability is given for each of the following compounds.
Form field: result (number plus unit)

> print(dat)
                               given.smiles  endpoint.result
1  CC(C)N1CCC(Oc2ccc(C3(C(N)=O)CCOCC3)cc2)CC1              42%

Could you now consider this next compound?
Exercise: Sample CC(C)N1CCC(Oc2ccc3c(n2)CCN(c2ccc(C(N)=O)cn2)C3)CC1 — what was its bioavailability?
Key: 54%
